Measured values drawn from patent US8563257B2 for this set.

- System: CHO-RMc4luc cells
- procedure-summary: Alternate glucocorticoids vs. dexamethasone in the non-starved CHO-RMc4 assay
- Assay type: cell-based, Chinese hamster
- experimental-parameters: glucocorticoid 10 μM in Growth Medium
attribute-measured: Δ (positive - normal) RLU (RLU)
Express your answer in RLU, writing the number without its unit.

Worked examples, 3 compounds total:
compound	attribute-measured	measured-value
CCC(=O)O[C@]1(C(=O)SCF)[C@H](C)C[C@H]2[C@@H]3C[C@H](F)C4=CC(=O)C=C[C@]4(C)[C@@]3(F)[C@@H](O)C[C@@]21C [Fluticasone Proprionate, Fluticasone Propionate]	Δ (positive - normal) RLU	8774
C[C@]12C=CC(=O)C=C1CC[C@@H]1[C@@H]2C(=O)C[C@@]2(C)[C@H]1CC[C@]2(O)C(=O)CO	Δ (positive - normal) RLU	8429
C[C@]12CCC(=O)C=C1CC[C@@H]1[C@@H]2C(=O)C[C@@]2(C)[C@H]1CC[C@]2(O)C(=O)CO	Δ (positive - normal) RLU	9847

Note: attention shifts to another entry.
Value lookup for Δ (positive - normal) RLU; key = C[C@]12CCC(=O)C=C1CC[C@@H]1[C@@H]2[C@@H](O)C[C@@]2(C)[C@H]1CC[C@]2(O)C(=O)CO [Hydrocortisone]
9757

---

- Test system: CHO-RMc4luc cells
- procedure-summary: Alternate glucocorticoids vs. dexamethasone in the non-starved CHO-RMc4 assay
- Format: cell-based, Chinese hamster
- experimental-parameters: glucocorticoid 1 μM in Growth Medium
attribute-measured: Δ (positive - normal) RLU (RLU)
Express your answer in RLU, writing the number without its unit.

Worked examples, 3 compounds total:
compound	attribute-measured	measured-value
C[C@]12CCC(=O)C=C1CC[C@@H]1[C@@H]2C(=O)C[C@@]2(C)[C@H]1CC[C@]2(O)C(=O)CO	Δ (positive - normal) RLU	9474
CCC(=O)O[C@]1(C(=O)SCF)[C@H](C)C[C@H]2[C@@H]3C[C@H](F)C4=CC(=O)C=C[C@]4(C)[C@@]3(F)[C@@H](O)C[C@@]21C [Fluticasone Proprionate, Fluticasone Propionate]	Δ (positive - normal) RLU	8806
C[C@]12CCC(=O)C=C1CC[C@@H]1[C@@H]2[C@@H](O)C[C@@]2(C)[C@H]1CC[C@]2(O)C(=O)CO [Hydrocortisone]	Δ (positive - normal) RLU	9149

Value lookup for Δ (positive - normal) RLU; key = C[C@]12C=CC(=O)C=C1CC[C@@H]1[C@@H]2C(=O)C[C@@]2(C)[C@H]1CC[C@]2(O)C(=O)CO
8219

---

- Test system: CHO-RMc4luc cells
- procedure-summary: Alternate glucocorticoids vs. dexamethasone in the non-starved CHO-RMc4 assay
- Assay type: cell-based, Chinese hamster
- experimental-parameters: glucocorticoid 50 μM in Growth Medium
Listed here: items and their measured Δ (positive - normal) SRR % s.
Express your answer in %, writing the number without its unit.

Worked examples, 3 molecules total:
molecule	system-under-test	attribute-measured	measured-value
CCC(=O)O[C@]1(C(=O)SCF)[C@H](C)C[C@H]2[C@@H]3C[C@H](F)C4=CC(=O)C=C[C@]4(C)[C@@]3(F)[C@@H](O)C[C@@]21C [Fluticasone Proprionate, Fluticasone Propionate]	CHO-RMc4luc cells	Δ (positive - normal) SRR % s	137
C[C@]12CCC(=O)C=C1CC[C@@H]1[C@@H]2[C@@H](O)C[C@@]2(C)[C@H]1CC[C@]2(O)C(=O)CO [Hydrocortisone]	CHO-RMc4luc cells	Δ (positive - normal) SRR % s	178
C[C@]12C=CC(=O)C=C1CC[C@@H]1[C@@H]2C(=O)C[C@@]2(C)[C@H]1CC[C@]2(O)C(=O)CO	CHO-RMc4luc cells	Δ (positive - normal) SRR % s	165

Note: attention shifts to another entry.
Value lookup for Δ (positive - normal) SRR % s; key = C[C@]12CCC(=O)C=C1CC[C@@H]1[C@@H]2C(=O)C[C@@]2(C)[C@H]1CC[C@]2(O)C(=O)CO
162

---

- Tested on: CHO-RMc4luc cells
- procedure-summary: Alternate glucocorticoids vs. dexamethasone in the non-starved CHO-RMc4 assay
- Type: cell-based, Chinese hamster
- experimental-parameters: glucocorticoid 10 μM in Growth Medium
Listed here: items and their measured Δ (positive - normal) SRR % s.
Express your answer in %, writing the number without its unit.

Worked examples, 3 molecules total:
molecule	attribute-measured	scale-unit	measured-value
C[C@]12CCC(=O)C=C1CC[C@@H]1[C@@H]2[C@@H](O)C[C@@]2(C)[C@H]1CC[C@]2(O)C(=O)CO [Hydrocortisone]	Δ (positive - normal) SRR % s	%	153
CCC(=O)O[C@]1(C(=O)SCF)[C@H](C)C[C@H]2[C@@H]3C[C@H](F)C4=CC(=O)C=C[C@]4(C)[C@@]3(F)[C@@H](O)C[C@@]21C [Fluticasone Proprionate, Fluticasone Propionate]	Δ (positive - normal) SRR % s	%	168
C[C@]12CCC(=O)C=C1CC[C@@H]1[C@@H]2C(=O)C[C@@]2(C)[C@H]1CC[C@]2(O)C(=O)CO [Cortisone]	Δ (positive - normal) SRR % s	%	151

Note: attention shifts to another entry.
Value lookup for Δ (positive - normal) SRR % s; key = C[C@]12C=CC(=O)C=C1CC[C@@H]1[C@@H]2C(=O)C[C@@]2(C)[C@H]1CC[C@]2(O)C(=O)CO [Prednisone]
142
